B1: FAM189A2 (parent)
chain: PRCDLVDLGEGKICFCCEEFQPAK

variants of: B1; experiment: protein stability index of a GFP-peptide fusion (GPS, HEK-293T) (PSI 1-6); higher = more stable; conditions: c terminus: a fixed tail appended;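 also: lentivirally expressed fusions sorted by FACS into six bins by GFP to DsRed ratio, PSI derived from sequencing read proportions per bin multiplied by bin number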
Can you tell me protein stability index for the items I'm about to list?
Enter the number alone.

Lookup: Please look at this variant and report its protein stability index: `G11N`
Found: 3.33

Lookup: Could you please provide reported protein stability index for `C16E` ? Thanks!
Found: 3.64

Lookup: Supply reported protein stability index belonging to this variant: `F20K`
Found: 3.89

Lookup: Tell us which protein stability index value is on record for `L5Q`
Found: 3.73

Lookup: Give me measured protein stability index, please, for this variant: `E18G`
Found: 2.64

Lookup: Fill in reported protein stability index for this entry: `C14F`
Found: 2.16

Lookup: Answer with reported protein stability index of `F20M`
Found: 3.16

Lookup: Write down protein stability index measured for item `I13G`
Found: 3.55

Lookup: Read off the recorded protein stability index for `D7H`
Found: 3.25

Lookup: Identify measured protein stability index corresponding to `P1R`
Found: 2.43

Lookup: Provide one value: measured protein stability index of `I13K`
Found: 3.71

Lookup: Hello, please tell me recorded protein stability index for this one: `C3H`
Found: 3.31

Lookup: Item `P22D` : provide protein stability index
Found: 4.31

Lookup: Using known records, supply protein stability index for `P1T`
Found: 2.63

Lookup: Using known records, supply protein stability index for `F15I`
Found: 2.38

Lookup: Please look at this variant and report its protein stability index: `D7V`
Found: 1.89

Lookup: Note down protein stability index recorded for `C17P`
Found: 3.27

Lookup: For `D4P` , write its protein stability index.
Found: 3.39

Lookup: Write down protein stability index measured for item `C3K`
Found: 3.07

Lookup: Specify reported protein stability index for the variant shown: `L5G`
Found: 4.44

Lookup: # return recorded protein stability index for input `C3V`
Found: 3.33

Lookup: Answer with reported protein stability index of `C14S`
Found: 3.3

Lookup: Recall and state the measured protein stability index for `L8M` .
Found: 3.74

Lookup: // fetch protein stability index given entry `Q21E`
Found: 3.87

Lookup: Fill in reported protein stability index for this entry: `Q21K`
Found: 2.79

Lookup: Return protein stability index for the following variant: `F15H`
Found: 3.77

Lookup: Return value of protein stability index for input `E10D` , no commentary.
Found: 3

Lookup: Provide only the value of recorded protein stability index for `E10Y`
Found: 2.29

Lookup: Provide protein stability index value for the following variant: `L8Q`
Found: 4.32

Lookup: Fill in protein stability index for record `C17G`
Found: 3.92

Lookup: Fill in protein stability index for record `D4C`
Found: 2.74

Lookup: Hello, please tell me recorded protein stability index for this one: `F15M`
Found: 2.8

Lookup: Give a short answer stating reported protein stability index for `K12V` .
Found: 2.35

Lookup: In one line, give reported protein stability index of the entry `L8N` .
Found: 3.73

Lookup: Note down protein stability index recorded for `F15Y`
Found: 2.81

Lookup: Using the record for `K24Y` , state its measured protein stability index.
Found: 2.52

Lookup: Note protein stability index for the variant shown: `P1I`
Found: 1.78

Lookup: Check the records and state protein stability index for `P22L`
Found: 2.74

Lookup: Look up and state reported protein stability index for `G9C`
Found: 2.91

Lookup: Report protein stability index for `F20S`
Found: 3.89

Lookup: Indicate the recorded protein stability index value for this variant: `L5C`
Found: 4.89

Lookup: Fill in reported protein stability index for this entry: `V6N`
Found: 3.71

Lookup: Write down protein stability index measured for item `P1C`
Found: 2.83

Lookup: Return protein stability index (reported value) for this variant: `I13R`
Found: 3.44

Lookup: Supply protein stability index value. Item: `G9T`
Found: 2.83

Lookup: Name the recorded protein stability index of the item `E18S` in your answer.
Found: 2.55
